# tgt: HCV NS3/4A protease complex (BMS strain, genotype 1a) (Hepatitis C virus genotype 1a, UniProt P27958, C1454S)
# Construct: DNA encoding the recombinant HCV NS3/4A protease complex (amino acids 1027 to 1711) for these strains; inferred from the pET21b vector and Ni-NTA purification; made in house; host or cells: Escherichia coli BL21 (DE3), pET21b
# Sequence (P27958 1658-1714, looked up, stated change not applied): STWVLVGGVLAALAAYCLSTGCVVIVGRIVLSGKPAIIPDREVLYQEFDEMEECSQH
# Sequence (P27958 1027-1657, looked up, stated change not applied): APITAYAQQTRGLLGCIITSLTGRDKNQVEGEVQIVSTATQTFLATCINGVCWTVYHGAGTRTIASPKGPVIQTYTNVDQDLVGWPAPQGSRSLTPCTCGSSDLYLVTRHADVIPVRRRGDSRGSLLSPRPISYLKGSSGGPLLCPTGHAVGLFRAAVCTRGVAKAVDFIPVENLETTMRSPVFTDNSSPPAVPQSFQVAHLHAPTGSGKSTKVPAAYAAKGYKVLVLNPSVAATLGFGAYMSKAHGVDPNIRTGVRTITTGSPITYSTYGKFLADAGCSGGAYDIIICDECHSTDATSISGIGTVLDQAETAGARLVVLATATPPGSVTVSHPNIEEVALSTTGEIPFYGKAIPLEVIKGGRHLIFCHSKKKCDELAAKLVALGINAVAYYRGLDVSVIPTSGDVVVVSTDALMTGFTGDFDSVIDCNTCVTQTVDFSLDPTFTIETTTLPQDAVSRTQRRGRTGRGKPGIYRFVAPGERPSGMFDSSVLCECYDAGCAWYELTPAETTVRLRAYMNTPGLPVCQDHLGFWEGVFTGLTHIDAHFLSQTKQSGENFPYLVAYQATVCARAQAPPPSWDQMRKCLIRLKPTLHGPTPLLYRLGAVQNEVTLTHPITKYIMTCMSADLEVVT
# procedure_details: Recombinant HCV NS3/4A protease complex FRET peptide assay, BMS strain
# Assay type: biochemical
# run_parameters: IC50 range, NS3/4A BMS Strain
pIC50: −log10 of the molar value.
# Lookup of reported pIC50 keyed by entry
reported_metric: pIC50

- compound: "C=CCC1(S(=O)(=O)NC(=O)[C@@]2(NC(=O)[C@@H]3C[C@@H](Oc4ccnc5cc(Cl)ccc45)CN3C(=O)[C@@H](NC(=O)OC3CCCC3)C(C)(C)C)C[C@H]2C=C)CC1"
  experimental_result: "6.30 to 7.30"
- compound: "C=CC1C[C@]1(NC(=O)[C@@H]1C[C@@H](Oc2cc(-c3ccccc3)nc3cc(OC)ccc23)CN1C(=O)[C@@H](NC(=O)OC(C)(C)C)C(C)(C)C)C(=O)NS(=O)(=O)C1(C)CC1 (stereo in doubt)"
  experimental_result: "> 7.30"
- compound: "C=C[C@@H]1C[C@]1(NC(=O)[C@@H]1C[C@@H](Oc2cc(-c3ccccc3)nc3cc(OC)ccc23)CN1C(=O)[C@@H](NC(=O)OC(C)(C)C)C(C)(C)C)C(=O)NS(=O)(=O)C1(Cc2ccccc2F)CC1"
  experimental_result: "> 7.30"
- compound: "C=C[C@@H]1C[C@]1(NC(=O)[C@@H]1C[C@@H](Oc2cc(-c3ccccc3)nc3cc(OC)ccc23)CN1C(=O)[C@@H](NC(=O)OC(C)(C)C)C(C)(C)C)C(=O)NS(=O)(=O)C1(C(=C)C)CC1"
  experimental_result: "> 7.30"

----------
# tgt: HCV NS3/4A protease complex (BMS strain, genotype 1a) (Hepatitis C virus genotype 1a, UniProt P27958, C1454S)
# Construct: DNA encoding the recombinant HCV NS3/4A protease complex (amino acids 1027 to 1711) for these strains; inferred from the pET21b vector and Ni-NTA purification; made in house; host or cells: Escherichia coli BL21 (DE3), pET21b
# procedure_details: Recombinant HCV NS3/4A protease complex FRET peptide assay, BMS strain
# Assay type: biochemical
# run_parameters: IC50 range, NS3/4A BMS Strain
# reported IC50; entries follow
reported_metric: IC50

- compound: "C=C[C@@H]1C[C@]1(NC(=O)[C@@H]1C[C@@H](Oc2cc(-c3ccccc3)nc3cc(OC)ccc23)CN1C(=O)[C@@H](NC(=O)OC(C)(C)C)C(C)(C)C)C(=O)NS(=O)(=O)C1(Cc2ccc(OC)cc2)CC1"
  experimental_result: "50 to 500 nM"
- compound: "C=C[C@@H]1C[C@]1(NC(=O)[C@@H]1C[C@@H](Oc2cc(-c3ccccc3)nc3cc(OC)ccc23)CN1C(=O)[C@@H](NC(=O)OC(C)(C)C)C(C)(C)C)C(=O)NS(=O)(=O)C1(CC(C)C)CC1"
  experimental_result: "< 50 nM"
- compound: "C=C[C@@H]1C[C@]1(NC(=O)[C@@H]1C[C@@H](Oc2cc(-c3ccccc3)nc3cc(OC)ccc23)CN1C(=O)[C@@H](NC(=O)OC(C)(C)C)C(C)(C)C)C(=O)NS(=O)(=O)C1(Cc2ccccn2)CC1"
  experimental_result: "< 50 nM"
- compound: "C=CC1C[C@]1(NC(=O)[C@@H]1C[C@@H](Oc2cc(-c3ccccc3)nc3cc(OC)ccc23)CN1C(=O)[C@@H](NC(=O)OC(C)(C)C)C(C)(C)C)C(=O)NS(=O)(=O)C1(C2=CCCCC2)CC1 (stereo in doubt)"
  experimental_result: "50 to 500 nM"

----------
# tgt: HCV NS3/4A protease complex (BMS strain, genotype 1a) (Hepatitis C virus genotype 1a, UniProt P27958, C1454S)
# Construct: DNA encoding the recombinant HCV NS3/4A protease complex (amino acids 1027 to 1711) for these strains; inferred from the pET21b vector and Ni-NTA purification; made in house; host or cells: Escherichia coli BL21 (DE3), pET21b
# procedure_details: Recombinant HCV NS3/4A protease complex FRET peptide assay, BMS strain
# Type: biochemical
# run_parameters: IC50 range, NS3/4A BMS Strain
pIC50: −log10 of the molar value.
Documented pIC50 across a set of compounds

- compound: "C=CC1C[C@]1(NC(=O)[C@@H]1C[C@@H](Oc2cc(-c3ccccc3)nc3cc(OC)ccc23)CN1C(=O)[C@@H](NC(=O)OC1CCCC1)C(C)(C)C)C(=O)NS(=O)(=O)C1(C)CC1 (stereo in doubt)"
  pIC50: "> 7.30"
- compound: "C=C[C@@H]1C[C@]1(NC(=O)C1CC(Oc2cc(-c3ccccc3)nc3cc(OC)ccc23)CN1C(=O)[C@@H](NC(=O)N(C)C(C)(C)C)C(C)(C)C)C(=O)NS(=O)(=O)C1(CC2CC2)CC1 (stereo partly shown)"
  pIC50: "> 7.30"
- compound: "C=C[C@@H]1C[C@]1(NC(=O)[C@@H]1C[C@@H](Oc2cc(C3CC3)nc3cc(OC)ccc23)CN1C(=O)[C@@H](NC(=O)OC(C)(C)C)C(C)(C)C)C(=O)NS(=O)(=O)C1(CC#CCC)CC1"
  pIC50: "> 7.30"
- compound: "C=C[C@@H]1C[C@]1(NC(=O)[C@@H]1C[C@@H](Oc2cc(-c3ccccc3)nc3cc(OC)ccc23)CN1C(=O)[C@@H](NC(=O)Oc1ccc(F)cc1)C(C)(C)C)C(=O)NS(=O)(=O)C1(Cc2ccccc2)CC1"
  pIC50: "6.30 to 7.30"

----------
// reported IC50 for each item listed
# tgt: HCV NS3/4A protease complex (BMS strain, genotype 1a) (Hepatitis C virus genotype 1a, UniProt P27958, C1454S)
# Construct: DNA encoding the recombinant HCV NS3/4A protease complex (amino acids 1027 to 1711) for these strains; inferred from the pET21b vector and Ni-NTA purification; made in house; host or cells: Escherichia coli BL21 (DE3), pET21b
# procedure_details: Recombinant HCV NS3/4A protease complex FRET peptide assay, BMS strain
# Format: biochemical
# run_parameters: IC50 range, NS3/4A BMS Strain
reported_metric: IC50

- compound: "C=CC1C[C@]1(NC(=O)[C@@H]1C[C@@H](Oc2cc(-c3ccccc3)nc3cc(OC)ccc23)CN1C(=O)[C@@H](NC(=O)OC(C)(C)C)C(C)(C)C)C(=O)NS(=O)(=O)C1(C(=O)Nc2ccccc2)CC1 (stereo in doubt) [Compound 6]"
  experimental_result: "< 0.05 µM"
- compound: "C=C[C@@H]1C[C@]1(NC(=O)[C@@H]1C[C@@H](Oc2cc(-c3ccccc3)nc3cc(OC)ccc23)CN1C(=O)[C@@H](NC(=O)O[C@@H]1C[C@H](C)CC[C@H]1C(C)C)C(C)(C)C)C(=O)NS(=O)(=O)C1(Cc2ccccc2)CC1 [Compound 109]"
  experimental_result: "0.5 to 5 µM"
- compound: "C=C[C@@H]1C[C@]1(NC(=O)[C@@H]1C[C@@H](Oc2cc(-c3ccccc3)nc3cc(OC)ccc23)CN1C(=O)[C@@H](NC(=O)OC(C)(C)C)C(C)(C)C)C(=O)NS(=O)(=O)C1(Cc2c(C)noc2C)CC1 [Compound 50]"
  experimental_result: "0.05 to 0.5 µM"
- compound: "COc1ccc2c(O[C@@H]3C[C@@H](C(=O)NC4(C(=O)NS(=O)(=O)C5(C(=O)Nc6ccccc6)CC5)CC4)N(C(=O)[C@@H](NC(=O)OC(C)(C)C)C(C)(C)C)C3)cc(-c3ccccc3)nc2c1 [Compound 72]"
  experimental_result: "0.5 to 5 µM"
- compound: "C=CC1C[C@]1(NC(=O)[C@@H]1C[C@@H](Oc2cc(-c3ccccc3)nc3cc(OC)ccc23)CN1C(=O)[C@@H](NC(=O)CC1CC1)C(C)(C)C)C(=O)NS(=O)(=O)C1(C)CC1 (stereo in doubt) [Compound 13]"
  experimental_result: "< 0.05 µM"
- compound: "C=CC1C[C@]1(NC(=O)[C@@H]1C[C@@H](Oc2cc(-c3ccccc3)nc3cc(OC)ccc23)CN1C(=O)[C@@H](NC(=O)OC(C)(C)C)C(C)(C)C)C(=O)NS(=O)(=O)C1(C(=O)c2ccccc2)CC1 (stereo in doubt) [Compound 4]"
  experimental_result: "0.05 to 0.5 µM"
- compound: "C=C[C@@H]1C[C@]1(NC(=O)[C@@H]1C[C@@H](Oc2cc(-c3ccccc3)nc3cc(OC)ccc23)CN1C(=O)[C@@H](NC(=O)OC(C)(C)C)C(C)(C)C)C(=O)NS(=O)(=O)C1(CCCC)CC1 [Compound 30]"
  experimental_result: "< 0.05 µM"
- compound: "COc1ccc2c(O[C@@H]3C[C@@H](C(=O)NC4(C(=O)NS(=O)(=O)C5(CC6CC6)CC5)CC45CC5)N(C(=O)[C@@H](NC(=O)OC(C)(C)C)C(C)(C)C)C3)cc(-c3ccccc3)nc2c1 (mixture of isomers) [Compound 202]"
  experimental_result: "0.05 to 0.5 µM"
- compound: "C=C[C@@H]1C[C@]1(NC(=O)[C@@H]1C[C@@H](Oc2cc(-c3ccccc3)nc3cc(OC)ccc23)CN1C(=O)[C@@H](NC(=O)NCC)C(C)(C)C)C(=O)NS(=O)(=O)C1(Cc2ccccc2)CC1 [Compound 61]"
  experimental_result: "< 0.05 µM"
